Measured Median : PE-A, listed per entry for reference.
Target: T1, EGFR overexpressed on cancer cell lines MDA-MB-468 and A431 (human, UniProt P00533 25-1210)
T1 construct: whole, on cells; also called overexpressed EGFR; cancer-expressed EGFR
Assay: flow cytometry, antibodies added at 2 µg/ml, MDA-MB-468 cells
recorded.metric: Median : PE-A

{"binder": "monoclonal antibody 9G11 (antibody, V domains shown) VH: QVQLKQSGPGLVQPSQSLSITCTVSGFSLTRNGVHWVRQSPGKGLEWVGVIWRGGRTDYDAAFMSRLSITKDNSKSQVFFKMNSLQADDTAIYYCVKNGDDGNYGTYWGQGTLVTVSA VL: DIVMSQSPSSLGVSVGEKVTMSCKSSQSLLDSRNQKNYLAWYQQKPGQSPKLLIYWASTRESGVPDRFTGSGSGTEFTLTISSVKAEDLAIYYCQQYYNYPYTFGGGTKLEIT", "recorded.metric": "Median : PE-A", "reading": 166}
{"binder": "monoclonal antibody 3D10 (antibody, V domains shown) VH: QVQLKQSGPGLVQPSQSLSIICTVSGFSLTRNGVHWVRQSPGKGLEWVGVIWRSGRTDYDAAFMSRLSITKDNSKSQVFFKMNSLQADDTAIYYCVKNGDDGNYGTYWGQGTLVTVSA VL: DIVMSQSPSSLGVSVGEKVTMSCKSSQSLLDSRNQKNYLAWYQQKPGQSPKLLIYWASTRESGVPDRFTGSGSGTEFTLTISSVKAEDLAIYYCQQYYNYPYTFGGGTKLEIT", "recorded.metric": "Median : PE-A", "reading": 205}
{"binder": "monoclonal antibody 40H3 (antibody, V domains shown, also called ma40H3 GS; 40H3 (full length antibody)) VH: QVQLKQSGPGLVQPSQSLSITCTVSGFSLTNYGIHWLRQSPGKGLEWLGMMWRGGGTDYNAAFISRLTITKDTSKSQVFFRMNNLQTNDTAIYYCARKGVGMGLGYWGQGTSVTVSS VL: DIQMTQSPASQSASLGESVTITCLASQTIGTWVAWYQQKPGRSPQLLIYGATNLADGVPSRFSGSGSGTKFSFKISSLQAEDFVSYYCQQLYSNPYTFGGGTKLEIK", "recorded.metric": "Median : PE-A", "reading": 2140}
{"binder": "monoclonal antibody 1D9 (antibody, V domains shown) VH: QVQLKQSGRSLVQPSQSLSITCTVSGFSLTDYGVHWIRQSPGKGLEWLGVIWRSGRTDYNAVFMSRLSITKDNSKSQVFFKMNGLQTDDTAIYYCAKNGPFGNFAGYWGQGTPVAVSA VL: DIVMSQSPSSLAVSVGEKVTMRCRSSQSLLDSYHQKNYLAWYLQKPGQSPKLLIYWASTRESGVPDRFTGSGSGTDFTLTISSVKAEDLAVYYCQEYYRYPYTFGGGTKLEIK", "recorded.metric": "Median : PE-A", "reading": 166}
{"binder": "monoclonal antibody 11G3 (antibody, V domains shown) VH: QVQLKQSGPSLVQPSQSLSITCTVSGFSLTNYGVHWVRQSPGKGLEWLGVMWRGGRTDYNAAFMSRLSITKDNSRSQVFFKMNSLQTDDAAIYYCAKNGPFGNFAGYWGQGTLVTVST VL: DIVMSQSPSSLPVSVGEKVSLTCKSSRSLLDNQKHYLAWYQQKPGQSPKLLIYWASTRESGVPDRFTGSGSGTEFTLTISSVKAEDLAVYYCQQFYNYPYTFGGGTKLEIK", "recorded.metric": "Median : PE-A", "reading": 90.3}
{"binder": "monoclonal antibody 4A4 (antibody, V domains shown) VH: QVQLKQSGRSLVQPSQSLSITCTVSGFSLTDYGVHWIRQSPGKGLEWLGVIWRSGRTDYNAVFMSRLSITKDNSKSQVFFKMNGLLIEDTAIYYCAKNGPFGNFAGYWGQGTPVAVSA VL: DIVMSQSPSSLAVSVGEKVTMRCRSSQSLLDSYHQKNYLAWYLQKPGQSPKLLIYWASTRESGVPDRFTGSGSGTDFTLTISSVKAEDLAAYYCQEYYRYPYTFGGGTKLEIK", "recorded.metric": "Median : PE-A", "reading": 130}
{"binder": "monoclonal antibody 11E11 (antibody, V domains shown) VH: QVQLKQSGPSLVQPSQSLSITCTVSGFSLTNYGVHWIRQSPGKGLEWLGVKWRGGRTDYNAAFMSRLSITRDNSRSQVFFKMNSLQTDDTAIYYCAKNGPFGNFAGYWGQGTLVTVSA VL: DIVMSQSPSSLAVSVGEKVSLTCKSSQSLLDNQKHYLAWYQQKPGQSPKLLIYWASTRESGVPDRFTGSGSGTEFTLTISSVKAEDLAVYYCQQFYNYPYTFGGGTKLEIK", "recorded.metric": "Median : PE-A", "reading": 216}
